Consider the following compounds; for each one, report its Kd.
Molecular target: S100B (Homo sapiens, UniProt P04271)
Construct: made in house; host or cells: Escherichia coli BL21(DE3)
Sequence (P04271 1-92): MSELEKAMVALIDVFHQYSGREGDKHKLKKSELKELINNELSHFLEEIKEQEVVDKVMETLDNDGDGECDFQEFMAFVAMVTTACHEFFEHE
Assay: Pull-down assay with immobilized protein and LSM libraries
Assay type: binding
Details: H12 library; 1:1 binding assumed; read-out: Surface mapping KD (apparent)

C[C@@H](CC(=O)N[C@H]1CCC[C@@H]1C(=O)N[C@H]1CCC[C@@H]1C(N)=O)NC(=O)[C@H]1CCC[C@@H]1NC(=O)[C@H]1CCC[C@@H]1NC(=O)C[C@H](CCCCN)NC(=O)[C@H]1CCC[C@@H]1NC(=O)[C@H]1CCC[C@@H]1N
243 µM

Hello, I would appreciate it if you could give Kd for each entry below.
1. C[C@@H](O)[C@@H](CC(=O)N[C@H]1CCC[C@@H]1C(=O)N[C@H]1CCC[C@@H]1C(=O)N[C@@H](CCCNC(=N)N)CC(=O)N[C@H]1CCC[C@@H]1C(=O)N[C@H]1CCC[C@@H]1C(N)=O)NC(=O)[C@H]1CCC[C@@H]1NC(=O)[C@H]1CCC[C@@H]1N
2. CC[C@H](C)[C@@H](CC(=O)N[C@H]1CCC[C@@H]1C(=O)N[C@H]1CCC[C@@H]1C(N)=O)NC(=O)[C@H]1CCC[C@@H]1NC(=O)[C@H]1CCC[C@@H]1NC(=O)C[C@H](Cc1c[nH]c2ccccc12)NC(=O)[C@H]1CCC[C@@H]1NC(=O)[C@H]1CCC[C@@H]1N
3. CSCC[C@@H](CC(=O)N[C@H]1CCC[C@@H]1C(=O)N[C@H]1CCC[C@@H]1C(=O)N[C@@H](CCC(N)=O)CC(=O)N[C@H]1CCC[C@@H]1C(=O)N[C@H]1CCC[C@@H]1C(N)=O)NC(=O)[C@H]1CCC[C@@H]1NC(=O)[C@H]1CCC[C@@H]1N

A)
286 µM
18 µM
192 µM
